The values you see were collected from paper PMC12920294.

test: in vivo; conditions: CD1 nude, mouse, 0.5 nmol/mouse, total radioactivity, Brain uptake
readout_type: tissue uptake at 24 h

Respectfully, I request tissue uptake at 24 h for each entry included below.
1. Cc1ccc(CCCC(=O)NCCOCCOCCOCCOCCC(=O)NCCCC[C@H](NC(=O)CC[C@H](C(=O)O)N2CCN(CC(=O)O)CCN(CC(=O)O)CCN(CC(=O)O)CC2)C(=O)N[C@@H](CC(=O)O)C(=O)N[C@@H](CC2CCCCC2)C(=O)N[C@@H](Cc2ccccc2)C(=O)N[C@H](CO)C(=O)N[C@H](CCCNC(=N)N)C(=O)N[C@@H](Cc2ccc(O)cc2)C(=O)N[C@@H](CC(C)C)C(=O)N[C@@H](Cc2c[nH]c3ccccc23)C(=O)N[C@@H](CO)C(N)=O)cc1 [[^177Lu]Lu-uPAR-17, metal not drawn]
2. Cc1ccc(CCCC(=O)NCCOCCOCCOCCC(=O)NCCCC[C@H](NC(=O)CN2CCN(CC(=O)O)CCN(CC(=O)O)CCN(CC(=O)O)CC2)C(=O)N[C@@H](CC(=O)O)C(=O)N[C@@H](CC2CCCCC2)C(=O)N[C@@H](Cc2ccccc2)C(=O)N[C@H](CO)C(=O)N[C@H](CCCNC(=N)N)C(=O)N[C@@H](Cc2ccc(O)cc2)C(=O)N[C@@H](CC(C)C)C(=O)N[C@@H](Cc2c[nH]c3ccccc23)C(=O)N[C@@H](CO)C(N)=O)cc1 [[^177Lu]Lu-uPAR-15, metal not drawn]

Response:
["< 0.03 %ID/g", "< 0.03 %ID/g"]

====

assay: in vivo; settings: CD1 nude, mouse, 0.5 nmol/mouse, total radioactivity, HEK-uPAR xenograft uptake
readout_type: tissue uptake at 4 h (%ID/g)
Answers are plain numbers, in %ID/g.

Request: Which tissue uptake at 4 h value is on record for Cc1ccc(CCCC(=O)NCCOCCOCCOCCOCCOCCC(=O)NCCCC[C@H](NC(=O)CN2CCN(CC(=O)O)CCN(CC(=O)O)CCN(CC(=O)O)CC2)C(=O)N[C@@H](CC(=O)O)C(=O)N[C@@H](CC2CCCCC2)C(=O)N[C@@H](Cc2ccccc2)C(=O)N[C@H](CO)C(=O)N[C@H](CCCNC(=N)N)C(=O)N[C@@H](Cc2ccc(O)cc2)C(=O)N[C@@H](CC(C)C)C(=O)N[C@@H](Cc2c[nH]c3ccccc23)C(=O)N[C@@H](CO)C(N)=O)cc1 [[^177Lu]Lu-uPAR-18, metal not drawn] ?
Response: 14

====

Endpoint: Kd. System: human uPAR (Homo sapiens). Items follow.
Sequence (Q03405 23-335): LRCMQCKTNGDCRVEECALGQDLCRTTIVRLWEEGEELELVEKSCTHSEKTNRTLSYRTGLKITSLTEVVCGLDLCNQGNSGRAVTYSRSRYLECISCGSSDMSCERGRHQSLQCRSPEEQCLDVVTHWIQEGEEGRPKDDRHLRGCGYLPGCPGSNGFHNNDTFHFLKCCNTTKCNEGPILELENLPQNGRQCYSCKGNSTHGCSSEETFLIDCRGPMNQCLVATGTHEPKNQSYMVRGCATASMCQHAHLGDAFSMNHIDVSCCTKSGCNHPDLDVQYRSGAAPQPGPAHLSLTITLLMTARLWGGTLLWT
One number for each entry, in nM.

- molecule: "Cc1ccc(CCCC(=O)NCCOCCOCCOCCOCCC(=O)NC[C@H](NC(=O)CN2CCN(CC(=O)O)CCN(CC(=O)O)CCN(CC(=O)O)CC2)C(=O)N[C@@H](CC(=O)O)C(=O)N[C@@H](CC2CCCCC2)C(=O)N[C@@H](Cc2ccccc2)C(=O)N[C@H](CO)C(=O)N[C@H](CCCNC(=N)N)C(=O)N[C@@H](Cc2ccc(O)cc2)C(=O)N[C@@H](CC(C)C)C(=O)N[C@@H](Cc2c[nH]c3ccccc23)C(=O)N[C@@H](CO)C(N)=O)cc1 [[^177Lu]Lu-uPAR-14, metal not drawn]"
  Kd [nM]: 37
- molecule: "Cc1ccc(CCCC(=O)NCCOCCOCCOCCC(=O)NCCCC[C@H](NC(=O)CN2CCN(CC(=O)O)CCN(CC(=O)O)CCN(CC(=O)O)CC2)C(=O)N[C@@H](CC(=O)O)C(=O)N[C@@H](CC2CCCCC2)C(=O)N[C@@H](Cc2ccccc2)C(=O)N[C@H](CO)C(=O)N[C@H](CCCNC(=N)N)C(=O)N[C@@H](Cc2ccc(O)cc2)C(=O)N[C@@H](CC(C)C)C(=O)N[C@@H](Cc2c[nH]c3ccccc23)C(=O)N[C@@H](CO)C(N)=O)cc1 [[^177Lu]Lu-uPAR-15, metal not drawn]"
  Kd [nM]: 42
- molecule: "Cc1ccc(CCCC(=O)NCCOCCOCCOCCOCCC(=O)NCCCC[C@H](NC(=O)CN2CCN(CC(=O)O)CCN(CC(=O)O)CCN(CC(=O)O)CC2)C(=O)N[C@@H](CC(=O)O)C(=O)N[C@@H](CC2CCCCC2)C(=O)N[C@@H](Cc2ccccc2)C(=O)N[C@H](CO)C(=O)N[C@H](CCCNC(=N)N)C(=O)N[C@@H](Cc2ccc(O)cc2)C(=O)N[C@@H](CC(C)C)C(=O)N[C@@H](Cc2c[nH]c3ccccc23)C(=O)N[C@@H](CO)C(N)=O)cc1 [[^177Lu]Lu-uPAR-11, metal not drawn]"
  Kd [nM]: 37

Please examine the following record next.
Request: Which Kd value is on record for Cc1ccc(CCCC(=O)NCCOCCOCCOCCOCCOCCC(=O)NCCCC[C@H](NC(=O)CN2CCN(CC(=O)O)CCN(CC(=O)O)CCN(CC(=O)O)CC2)C(=O)N[C@@H](CC(=O)O)C(=O)N[C@@H](CC2CCCCC2)C(=O)N[C@@H](Cc2ccccc2)C(=O)N[C@H](CO)C(=O)N[C@H](CCCNC(=N)N)C(=O)N[C@@H](Cc2ccc(O)cc2)C(=O)N[C@@H](CC(C)C)C(=O)N[C@@H](Cc2c[nH]c3ccccc23)C(=O)N[C@@H](CO)C(N)=O)cc1 [[^177Lu]Lu-uPAR-18, metal not drawn] ?
Response: 33
